property label: pKi
Quick note: pKi values are minus log10 of concentrations in mol/L.

// query State recorded pKi with kappa opioid receptor (κOR) (Homo sapiens, UniProt P41145), entry "Cc1cccc(C)c1NC1=NCCCS1" , no comment.
// result 6.33

---

molecular target: kappa opioid receptor (κOR) (Homo sapiens, UniProt P41145); test: Gi-GloSensor cAMP assay
property label: EC50

// query Give the reported EC50 for this compound. Cc1cccc(C)c1NC1=NCCCS1 [xylazine]
// result 1400 nM
